Target: T1, ttPOLXc domain (Thermus thermophilus HB8, UniProt Q5SJ64 1-379)
T1 sequence: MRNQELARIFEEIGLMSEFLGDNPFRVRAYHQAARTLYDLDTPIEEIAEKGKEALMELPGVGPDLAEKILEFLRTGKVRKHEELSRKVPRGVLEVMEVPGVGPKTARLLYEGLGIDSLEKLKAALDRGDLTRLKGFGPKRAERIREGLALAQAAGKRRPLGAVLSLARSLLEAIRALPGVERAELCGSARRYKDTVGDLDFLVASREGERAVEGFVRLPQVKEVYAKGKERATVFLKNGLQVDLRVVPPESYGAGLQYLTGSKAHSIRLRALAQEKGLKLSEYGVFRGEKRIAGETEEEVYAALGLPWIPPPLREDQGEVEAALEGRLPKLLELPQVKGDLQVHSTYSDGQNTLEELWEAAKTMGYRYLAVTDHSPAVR
Experiment: EMSA

{"binder": "21F/40T/P18G 5'-phosphorylated 1-nt gapped DNA (dsDNA, 5'-phosphate on 18G (P18G)) DNA 1: CACTGGCGGTCGTTCTATCGGGTGTTGCTTTAGTTGTCAT DNA 2: ATGACAACTAAAGCAACACCC DNA 3: ATAGAACGACCGCCAGTG", "uom": "µM", "Kd": 4.8}
